Target: TLR9 (Homo sapiens, UniProt Q9NR96)
Sequence (Q9NR96 26-1032): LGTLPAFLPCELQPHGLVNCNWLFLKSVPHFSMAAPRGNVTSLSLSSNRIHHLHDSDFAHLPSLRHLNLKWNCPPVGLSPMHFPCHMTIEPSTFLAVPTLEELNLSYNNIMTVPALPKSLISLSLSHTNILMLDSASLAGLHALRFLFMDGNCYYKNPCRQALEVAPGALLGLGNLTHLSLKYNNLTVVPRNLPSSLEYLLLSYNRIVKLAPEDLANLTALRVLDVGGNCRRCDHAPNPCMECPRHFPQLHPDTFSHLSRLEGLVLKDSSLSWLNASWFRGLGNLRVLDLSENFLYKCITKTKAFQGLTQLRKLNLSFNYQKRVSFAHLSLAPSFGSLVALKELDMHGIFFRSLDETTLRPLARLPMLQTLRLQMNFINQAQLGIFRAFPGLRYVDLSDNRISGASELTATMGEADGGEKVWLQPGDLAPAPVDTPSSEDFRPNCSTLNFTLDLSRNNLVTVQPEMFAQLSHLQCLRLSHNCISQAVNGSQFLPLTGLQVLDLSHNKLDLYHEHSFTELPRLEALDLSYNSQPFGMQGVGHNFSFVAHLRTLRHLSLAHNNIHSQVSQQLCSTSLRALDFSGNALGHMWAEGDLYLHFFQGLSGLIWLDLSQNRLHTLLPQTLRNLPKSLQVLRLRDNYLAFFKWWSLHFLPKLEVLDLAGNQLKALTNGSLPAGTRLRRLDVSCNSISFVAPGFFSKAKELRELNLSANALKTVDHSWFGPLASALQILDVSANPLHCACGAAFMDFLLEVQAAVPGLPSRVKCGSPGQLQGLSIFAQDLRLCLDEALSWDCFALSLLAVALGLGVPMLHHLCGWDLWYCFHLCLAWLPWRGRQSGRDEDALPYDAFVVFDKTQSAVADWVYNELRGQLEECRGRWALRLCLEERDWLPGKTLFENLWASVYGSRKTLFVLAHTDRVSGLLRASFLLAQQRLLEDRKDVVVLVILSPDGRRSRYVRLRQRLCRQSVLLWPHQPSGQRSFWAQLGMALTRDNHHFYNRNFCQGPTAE
Experiment: HEK293-Blue-hTLR-9 cells assay
Type: cell-based
Set-up: host or cells: HEK293 (HEK-Blue hTLR9)
Conditions: HEK293-Blue-hTLR9 cells, ODN2006 stimulation, 20 hrs, SEAP reporter; read-out: HEK/hTLR9 IC50
IC50 vs 80 nM: less than gives T; not less than gives F.

| Molecule | Cat |
| --- | --- |
| C[C@@H]1CN(c2ccc(C#N)c3ncccc23)C[C@H](CN2CC(n3ncc4c3CN[C@@H](C)C4)C2)O1 (single isomer, unassigned) | T |
| C[C@@H]1CN(c2ccc(C#N)c3ncccc23)C[C@H](CN2CC(n3cc4c(n3)[C@@H](C)CNC4)C2)O1 (single isomer, unassigned) | F |
| C[C@@H]1Cc2cnn(C3CN(C[C@H]4CN(c5ccc(C#N)c6ncccc56)C[C@@H](C)O4)C3)c2CN1 (single isomer, unassigned) | T |
| C[C@@H]1CN(c2ccc(C#N)c3ncccc23)C[C@H](CN2CC(n3cc4c(n3)C(C)(C)CNC4)C2)O1 | F |
| C[C@@H]1CN(c2ccc(C#N)c3ncccc23)C[C@H](CN2CC(n3ncc4c3CCN[C@@H]4C)C2)O1 | T |
| C[C@@H]1CN(c2ccc(C#N)c3ncccc23)C[C@H](CN2CC(n3ncc4c3CCNC4)C2)O1 | T |
| Cc1c2c(nn1C1CN(C[C@H]3CN(c4ccc(C#N)c5ncccc45)C[C@@H](C)O3)C1)CNCC2 | F |

// data source = patent US20210300924A1
